Below, each entry is listed with its recorded MIC.
System: Klebsiella aerogenes
Assay: Minimum inhibitory concentration against Klebsiella aerogenes 1522E was determined by agar dilution method using Mueller-Hinton
Format: functional
ASSAY READOUT: MIC (mg/L)

- MOLECULE: "C[C@@H](O)[C@H]1C(=O)N2C(C(=O)O)=C(S[C@@H]3CN[C@H](/C=C/c4ccon4)C3)[C@H](C)[C@H]12"
  READOUT VALUE: 0.098
- MOLECULE: "C[C@@H](O)[C@H]1C(=O)N2C(C(=O)O)=C(S[C@@H]3CN[C@H](/C=C/c4cc(CO)no4)C3)[C@H](C)[C@H]12"
  READOUT VALUE: 0.049
- MOLECULE: "C[C@@H](O)[C@H]1C(=O)N2C(C(=O)O)=C(SCCNC=N)C[C@H]12 [IMIPENEM ANHYDROUS]"
  READOUT VALUE: 0.391
- MOLECULE: "C[C@@H](O)[C@H]1C(=O)N2C(C(=O)O)=C(S[C@@H]3CN[C@H](C(=O)N(C)C)C3)[C@H](C)[C@H]12 [MEROPENEM]"
  READOUT VALUE: 0.049
- MOLECULE: "C[C@@H](O)[C@H]1C(=O)N2C(C(=O)O)=C(S[C@@H]3CN[C@H](/C=C\\c4cc(CO)no4)C3)[C@H](C)[C@H]12"
  READOUT VALUE: 0.098
